Test system: A549/ATCC NSCLC
Test: NCI-60 one-dose screen, 48 h (100 = growth as untreated, 0 = no growth, -100 = all killed)
Settings: 10 µM unless noted
Protocol: Growth inhibition of the A549/ATCC human Non-Small Cell Lung tumor cell line is measured as a screen for anti-cancer activity. Cells are grown in 96 well plates and exposed to the test compound for 48 hours. Compounds are tested at a single concentration, which is 10^-5 M for most compounds. The reported endpoint is percent growth (GI% or GIPRCNT), where numbers from 0 - 100% represent growth inhibition, and numbers from -100% - 0 represent cell death. […]
About 83,000 compounds went through this panel and 20% of them were active in at least one assay; those are over-represented in the sample as a whole.
Response key: 1 (yes) means growth >= 40%; 0 (no) means growth < 40%.

                                smiles_text  group_label
0  COc1cc2c(cc1O)CCN1C[C@@H](CC(C)C)[C@@H](O)C[C@@H]21      1 (yes)
1  COc1ccc(-c2nc(-c3nc4cc(C)c(C)cc4[nH]3)cc3c2[nH]c2ccccc23)cc1      1 (yes)
2           COc1cc(NC(=O)SC2=NCCS2)cc(OC)c1      1 (yes)
3  CC(C)(C)n1cc(-c2ccnc(NCCCNS(=O)(=O)c3ccccc3)c2)c(-c2cccc(O)c2)n1       0 (no)
4  COc1cc2c(cc1OCCCCCn1c3ccccc3c3ccccc31)N=C[C@@H]1CCCN1C2=O       0 (no)

* * *

System: HOP-92 NSCLC
Assay: NCI-60 one-dose screen, 48 h (100 = growth as untreated, 0 = no growth, -100 = all killed)
Settings: 10 µM unless noted
The panel holds about 83,000 compounds, 20% with a hit somewhere; the sample as a whole holds those more often.
Response key: fulfilled means growth >= 80%; not fulfilled means growth < 80%.

Molecule	Group label
O=C(O)c1nc(-c2ccccc2)oc1N1CCOCC1	fulfilled
C=C1CCC[C@]2(C)CCC[C@H](C)[C@@H](OC(C)=O)[C@@H]3OC(=O)C(=C)[C@@H]3C[C@H]1O2	not fulfilled
CN1C=CN(Cc2ccc(-c3ccccn3)nc2)[CH-]1.CN1C=CN(Cc2ccc(-c3ccccn3)nc2)[CH-]1.[Au+3]	not fulfilled
NNc1cccc(/C=C/c2ccccc2)cc1=O	not fulfilled
C=C1CCC2C3(C)COC(C)(C)OC3CCC2(C)C1C/C=C1/C(=O)OCC1Oc1ccccc1OC (centres undefined)	fulfilled
Clc1ccccc1-c1nc2ccccc2[nH]1	fulfilled
CC1(C)C(=O)/C(=C\c2ccc(C(F)(F)F)cc2)C[C@]2(C)[C@H]3CC[C@@H]4[C@H]5[C@H](C(=O)/C=C/c6ccc(C(F)(F)F)cc6)CC[C@]5(CO)CC[C@@]4(C)[C@]3(C)CC[C@@H]12	fulfilled
C1=Cc2ccccc2N(c2nnc(-c3ccccc3)o2)c2ccccc21	fulfilled
Cc1ccc(S(=O)(=O)NCCNc2cc(-c3cn(C(C)(C)C)nc3-c3cccc(O)c3)ccn2)cc1	not fulfilled
CN(C)CC(C(=O)c1ccccc1)c1ccccc1 (centres undefined)	not fulfilled
COc1ccc(-c2nc(/C=N/Nc3cc(C)nc4ccc(Cl)cc34)c(C)o2)cc1	not fulfilled
N#Cc1c(-c2ccccc2)nc(SCC(=O)N2CCN(c3ccccc3)CC2)[nH]c1=O	fulfilled
COc1ccc(-c2cc(-c3ccccc3)nc(SCCCC(=O)NO)n2)cc1OC	not fulfilled
CN1C(=O)N(C)C2C1NN=c1s/c(=C\C=C\c3ccccc3)c(=O)n12 (centres undefined)	not fulfilled
O=[N+]([O-])c1cccc(-c2nc3sccn3c2-c2ccnc(NCCCNS(=O)(=O)c3ccc(Cl)cc3)n2)c1	not fulfilled
O=C1/C(=C/c2ccccc2)Oc2ccc(O)c(I)c21	fulfilled
COc1ccc2c(c1)[nH]c(=O)c1c3cc(C)c(C)cc3cn21	not fulfilled
O=C(Nc1ccncc1)C(=O)c1cn(S(=O)(=O)c2ccc(Cl)cc2)c2ccccc12	not fulfilled
COc1ccc(C2=C(c3cc(OC)c(OC)c(OC)c3)C(=O)CC2)cc1	not fulfilled
CN(C)CCCN(c1nc(C(Cl)(Cl)Cl)ns1)c1nc(C(Cl)(Cl)Cl)ns1	not fulfilled
CCCCNC(=O)Oc1ccc(/C(=C(\C)c2ccccc2)c2ccc(OCCN(CC)CC)cc2)cc1	not fulfilled
COc1ccc2c(c1)OC1=C(C(=O)OC1)C2c1cc(OC)c2c(c1)OCO2 (centres undefined)	not fulfilled
NC(=S)N/N=C1\CCCC(C(F)(F)F)C1 (centres undefined)	fulfilled
COc1cc(/C=C/C(=O)/C=C/c2cc(OC)c3c(c2)OCO3)cc2c1OCO2	fulfilled
c1ccc(-c2cn(-c3ccccc3)c(-c3ccccc3)n2)cc1	not fulfilled
CO[C@H]1NC(=O)N(S(=O)(=O)c2ccc(Cl)cc2)[C@@H]1OC	fulfilled
O=S(=O)(NCCCNc1nccc(-n2ccc3cccnc32)n1)c1cccc(C(F)(F)F)c1	fulfilled
COc1cc(/C=C/C(=O)c2ccc(Nc3ncnc4cc(OC)c(OC)cc34)cc2)cc(OC)c1	not fulfilled
COc1cc(/C=N\NC(=O)CN2CCN(c3cc4c(cc3F)c(=O)c(C(=O)N/N=C/c3cc(OC)c(OC)c(OC)c3)cn4C3CC3)CC2)cc(OC)c1OC	not fulfilled
O=c1[nH]c(NCc2ccccc2)nc2nc(Nc3ccc(NC(=S)Nc4ccccc4)cc3)nc(-c3ccc(O)cc3O)c12	fulfilled
Nc1cccc(Cl)c1N	fulfilled
Nc1nnc(-c2ccc3ccccc3c2O)o1	fulfilled
C/C=C(\C)C(C(=O)NC1CCCCC1)N(C(=O)C1CCc2cc(F)ccc2O1)c1ccc(Cl)cc1 (centres undefined)	fulfilled
CC(C)(C)OC(=O)NC(CSCc1ccccc1)C(=O)ON1C(=O)CCC1=O (centres undefined)	fulfilled
CC(C)C1=CC2=C(C=O)C[C@@H]3[C@](C)(CCC[C@@]3(C)C(=O)OCC#CCN3CCCC3)[C@H]2CC1	not fulfilled

* * *

Test system: SK-MEL-5 melanoma
Assay: NCI-60 one-dose screen, 48 h
Conditions: 10 µM unless noted
Description: Growth inhibition of the SK-MEL-5 human tumor cell line is measured as a screen for anti-cancer activity. Cells are grown in 96 well plates and exposed to the test compound for 48 hours. Compounds are tested at a single concentration, which is 10^-5 M for most compounds. The reported endpoint is percent growth (GI% or GIPRCNT), where numbers from 0 - 100% represent growth inhibition, and numbers from -100% - 0 represent cell death. For example, a value of 40 represents 60% growth inhibition. […]
About 83,000 compounds went through this panel and 20% of them were active in at least one assay; those are over-represented in the sample as a whole. Active and inactive are the calls of the source. How the source made its calls: active means growth percent below 10; inactive means the rest.
Possible outcomes: active, inactive

>>> print(df.to_string())
                                   compound  group_label
0  O=C(NCCCNc1nccc(-n2ccc3cccnc32)n1)c1c(F)cccc1F     inactive
1  COc1cc(/C=C/C(=O)c2c(C)nc3ccccc3c2C)ccc1OCCCCOc1cc2c(cc1OC)C(=O)N1CCC[C@H]1C=N2       active
2  COc1ccc(-c2cc(-c3ccccc3)nc(SCCCC(=O)NO)n2)cc1OC       active
3  O=[N+]([O-])c1cc(S(=O)(=O)Oc2ccccc2)ccc1Cl       active
4  COc1ccc(-c2ccc(-c3ccc(C(=N)N)s3)s2)cc1Cl     inactive
5            CCNc1nc(S(=O)(=O)CC)nc2ccccc12     inactive
6  Cc1nc2ncccc2nc1Nc1ccc(S(=O)(=O)Nc2cncs2)cc1     inactive
7  C=C1C(=O)O[C@H]2[C@H]1CC/C(Cn1cc(CNC(=O)/C=C/c3c[nH]c4ccccc34)nn1)=C\CC[C@@]1(C)O[C@@H]21     inactive
8  CCCCCCCCCCCCNC(=O)[C@H]1CSC(c2cc3ccccc3s2)N1 (stereo not given in full)     inactive
9  COc1ccc(-c2ccc(C)n2-c2ccc(-c3nc4cc(Cl)ccc4s3)cc2)cc1     inactive

* * *

System: OVCAR-4 ovarian
Assay: NCI-60 one-dose screen, 48 h (100 = growth as untreated, 0 = no growth, -100 = all killed)
Details: 10 µM unless noted
This is part of a sample that, as a whole, favours compounds with a hit. Of some 83,000 tested, about 20% had one in any assay.
Each record here notes measured growth.
Outcome measure: growth (%)

>>> df
                                   molecule  unit_abbreviation  recorded_measurement
0  CC1CN(c2oc(-c3ccccc3)nc2C#N)CC(C)O1 (stereo not given)                  %                  99.4
1  O=C(CN1CCN(c2cc3c(cc2F)c(=O)c(C(=O)N/N=C/c2ccccc2O)cn3C2CC2)CC1)N/N=C\c1ccccc1O                  %                  19.8
2  CCO/C=N/C1=C(C#N)C(c2ccc(Cl)cc2)c2c(c3ccc(C)cc3[nH]c2=O)O1 (stereo not given)                  %                    85
3  CC(=O)Oc1csc(N(C(C)=O)c2cccc(C(F)(F)F)c2)n1                  %                  89.4
4  S=c1[nH]nc(-c2cc3ccc2CCc2ccc(cc2)CC3)n1C1CC1                  %                  89.4
5  CCN(CC)c1ccc2[nH]c3c(C(N)=O)cc(=O)c(=O)c=3oc2c1                  %                  2.07
6  O=C(Nc1ccncc1)C(=O)c1cn(S(=O)(=O)c2ccc(Cl)cc2)c2ccccc12                  %                    49
7  Cc1ccc2nc(-c3cc4c([nH]c5ccccc54)c(-c4ccc(F)c(F)c4)n3)[nH]c2c1                  %                    69
8                      Cc1cc(C(C)(C)C)ccc1S                  %                  99.2
9  CN1C(=O)N(C)C2C1NN=c1s/c(=C\C=C\c3ccccc3)c(=O)n12 (stereo not given)                  %                  81.9
